SYSTEM: cloned P2X7 ATP-activated channel (human P2RX7 gene expressed in HEK293 cells) (Homo sapiens, UniProt Q99572)
Construct: HEK293 cells were stably transfected with the appropriate ion channel cDNA encoding the pore-forming channel subunit; expressed in transfected cells
Sequence (Q99572 whole entry): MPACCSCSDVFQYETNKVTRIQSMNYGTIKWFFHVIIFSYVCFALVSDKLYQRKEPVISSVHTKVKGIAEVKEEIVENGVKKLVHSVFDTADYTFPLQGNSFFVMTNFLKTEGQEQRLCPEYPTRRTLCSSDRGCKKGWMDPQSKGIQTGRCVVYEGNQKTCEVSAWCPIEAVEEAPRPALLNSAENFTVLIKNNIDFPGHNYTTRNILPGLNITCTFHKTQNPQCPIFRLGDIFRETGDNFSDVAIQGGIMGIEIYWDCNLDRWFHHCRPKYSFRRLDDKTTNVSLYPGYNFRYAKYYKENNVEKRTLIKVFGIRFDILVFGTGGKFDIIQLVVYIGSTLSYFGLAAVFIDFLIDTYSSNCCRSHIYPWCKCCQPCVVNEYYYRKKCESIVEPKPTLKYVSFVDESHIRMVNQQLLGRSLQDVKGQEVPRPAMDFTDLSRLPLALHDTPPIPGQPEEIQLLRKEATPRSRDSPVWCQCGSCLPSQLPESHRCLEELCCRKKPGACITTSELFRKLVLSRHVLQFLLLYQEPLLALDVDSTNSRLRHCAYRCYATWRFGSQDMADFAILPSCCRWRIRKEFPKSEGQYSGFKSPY
ASSAY: Electrochemical patch clamp assay of P2X7 receptor activation (agonist mode, QPatch HT)
Type: cell-based
EXPERIMENTAL PARAMETERS: whole-cell patch clamp, holding voltage −80 mV, room temperature
EXPERIMENTAL READOUT: EC50 (µM)

molecule="Nc1ncnc2c1ncn2[C@@H]1O[C@H](COP(=O)(O)OP(=O)(O)OP(=O)(O)O)[C@@H](OC(=O)c2cccc(Oc3ccccc3)c2)[C@H]1O [ATP-(3-phenoxy)benzoyl, 3-phenoxybenzoyl-ATP]" readout_number=49.1
molecule="Nc1ncnc2c1ncn2[C@@H]1O[C@H](COP(=O)(O)OP(=O)(O)OP(=O)(O)O)[C@@H](O)[C@H]1O [NaATP, adenosine triphosphate, reference compound]" readout_number=363
molecule="CCCCCCCCCCCC(=O)O[C@H]1[C@@H](O)[C@H](n2cnc3c(N)ncnc32)O[C@@H]1COP(=O)(O)OP(=O)(O)OP(=O)(O)O [ATP-lauroyl, lauroyl-ATP]" readout_number=62.4
molecule="Nc1ncnc2c1ncn2[C@@H]1O[C@H](COP(=O)(O)OP(=O)(O)OP(=O)(O)O)[C@@H](OC(=O)c2ccccc2)[C@H]1O [3′-O-(Benzoyl) Adenosine-5-Triphosphate, 3′-O-(benzoyl)-adenosine-5-triphosphate]" readout_number=24
